- Experimental system: full-length beta-Catenin (Uniprot ID P35222) (Homo sapiens (Human)) (UniProt P35222)
- Sequence (P35222 2-781 limits assumed): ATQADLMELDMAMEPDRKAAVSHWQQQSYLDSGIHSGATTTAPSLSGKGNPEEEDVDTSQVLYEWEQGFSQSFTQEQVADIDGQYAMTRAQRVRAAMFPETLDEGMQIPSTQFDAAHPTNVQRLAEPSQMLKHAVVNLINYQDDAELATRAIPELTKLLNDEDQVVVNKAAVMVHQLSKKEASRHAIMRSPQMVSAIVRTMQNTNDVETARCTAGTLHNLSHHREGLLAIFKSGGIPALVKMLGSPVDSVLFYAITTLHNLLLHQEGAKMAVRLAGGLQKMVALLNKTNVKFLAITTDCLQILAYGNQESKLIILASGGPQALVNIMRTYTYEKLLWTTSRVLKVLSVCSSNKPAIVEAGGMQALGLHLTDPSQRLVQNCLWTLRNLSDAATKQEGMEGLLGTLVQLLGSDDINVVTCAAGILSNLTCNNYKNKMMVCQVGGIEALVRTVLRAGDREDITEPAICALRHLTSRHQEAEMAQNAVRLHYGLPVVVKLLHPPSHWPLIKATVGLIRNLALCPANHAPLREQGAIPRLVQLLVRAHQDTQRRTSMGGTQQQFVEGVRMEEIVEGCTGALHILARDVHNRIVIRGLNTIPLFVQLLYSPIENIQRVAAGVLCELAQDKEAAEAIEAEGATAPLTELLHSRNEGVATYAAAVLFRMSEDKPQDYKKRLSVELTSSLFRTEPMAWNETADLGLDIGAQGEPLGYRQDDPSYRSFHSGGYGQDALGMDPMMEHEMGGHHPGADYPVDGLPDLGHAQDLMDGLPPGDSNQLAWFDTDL
- Experiment summary: fluorescence polarization competition; full-length beta-catenin; competitor displaced: 5FAM-TCF4 10-53
Starred links: 1 amine or outer side, 2 acyl side, 3 side chain; linkers in the order of their positions; H or OH if unused. Positions of bridges follow the written chain, without caps; N, C: chain ends. Non-standard residues stand in square brackets, D forms with d. Primed or numbered codes have the meaning given here. PyrS2″ = (S)-3-amino-1-((pent-4-en-1-yloxy)carbonyl)pyrrolidine-3-carboxylic acid (stapling residue), C=CCCCOC(=O)N1CC[C@@](N[*:1])(C(=O)[*:2])C1; B5(4) = 2,2-bis(4-pentenyl)glycine = 2-amino-2-(pent-4-en-1-yl)hept-6-enoic acid (stitching residue), C=CCCCC(CCCC=C)(N[*:1])C(=O)[*:2]; B5(8) = 2,2-bis(4-pentenyl)glycine (2-amino-2-(pent-4-en-1-yl)hept-6-enoic acid, stitching residue), C=CCCCC(CCCC=C)(N[*:1])C(=O)[*:2]; TfeGA = (S)-2-amino-3-((carboxymethyl)(2,2,2-trifluoroethyl)amino)propanoic acid, O=C([C@H](CN(CC(=O)[*:3])CC(F)(F)F)N[*:1])[*:2]; Bta = N[C@@H](Cc1csc2ccccc12)C(=O)O; αAllylPro = C=CC[C@@]1(C(=O)O)CCCN1; tBuAla = CC(C)(C)C[C@H](N)C(=O)O; 3Thi = N[C@@H](Cc1ccsc1)C(=O)O; S8 = C=CCCCCCC[C@](C)(N)C(=O)O
Value kind: IC50 (nM)
Numbers only, in nM.

Example entries begin here.
{"Binder": "Ac-[αAllylPro]DL[B5(8)]DDAAFN[PyrS2″][3Thi][Bta]H-NH2 (staple 1-4, 4-11) [I-696]", "Units of measure": "nM", "IC50": 5}
{"Binder": "Ac-[αAllylPro]D[tBuAla][B5(4)]DEAAFN[PyrS2″]F[Bta]Q-NH2 (staple 1-4, 4-11; not fully specified) [I-684]", "Units of measure": "nM", "IC50": 15}
{"Binder": "Ac-[αAllylPro]DI[B5(8)]D[TfeGA]AAFN[S8][3Thi][Bta]Q-NH2 (staple 1-4, 4-11) [I-700]", "Units of measure": "nM", "IC50": 49}
{"Binder": "Ac-[αAllylPro]D[tBuAla][B5(4)]DEAAFN[PyrS2″]F[Bta]Q-NH2 (staple 1-4, 4-11; not fully specified) [I-685]", "Units of measure": "nM", "IC50": 25}

Okay, now this binder:
Recorded IC50 for Ac-[αAllylPro]D[tBuAla][B5(4)]DEAAFN[PyrS2″]F[Bta]H-NH2 (staple 1-4, 4-11; not fully specified) [I-692] , please?
9
